These entries and their values trace back to patent US10093630B2.

Molecular target: FAAH (Mus musculus)
Construct: Proteomes (mouse brain membrane fraction or cell lysates); from tissue; host or cells: mouse brain membrane fraction (or cell lysates, not specified)
Sequence (O08914 1-579): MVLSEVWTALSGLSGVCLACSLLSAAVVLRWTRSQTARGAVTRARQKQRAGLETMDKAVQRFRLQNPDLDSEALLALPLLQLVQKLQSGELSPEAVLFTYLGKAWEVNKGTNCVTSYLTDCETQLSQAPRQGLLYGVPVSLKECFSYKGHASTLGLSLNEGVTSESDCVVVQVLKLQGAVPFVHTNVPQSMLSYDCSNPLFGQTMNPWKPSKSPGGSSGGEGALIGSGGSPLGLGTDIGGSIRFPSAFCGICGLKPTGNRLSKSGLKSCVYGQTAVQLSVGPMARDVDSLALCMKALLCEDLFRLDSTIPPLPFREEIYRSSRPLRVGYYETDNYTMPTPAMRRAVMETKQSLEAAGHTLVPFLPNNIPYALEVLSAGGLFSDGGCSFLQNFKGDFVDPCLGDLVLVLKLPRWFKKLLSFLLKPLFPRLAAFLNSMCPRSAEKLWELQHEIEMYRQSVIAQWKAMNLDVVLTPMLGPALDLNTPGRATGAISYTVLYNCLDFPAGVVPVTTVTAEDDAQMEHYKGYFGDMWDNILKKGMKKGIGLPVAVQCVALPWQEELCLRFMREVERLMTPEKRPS
Test: In vitro competitive activity-based protein profiling (gel-based, FP-Rh or HT-01 probe)
Assay type: biochemical
Conditions: 10 μM inhibitor; read-out: % Inhibition at 10 μM, B = FAAH
result type: inhibition at 10 µM

Take a look at these entries with their results.
# compound structure string, inhibition at 10 µM
data = [
    ("O=C(c1cnn(C(=O)N2CCN(Cc3nccs3)CC2)c1)N1CCCCC1", "> 75%"),
    ("CC(=O)N1CCN(C(=O)n2cc(C(F)(F)F)cn2)CC1", "< 25%"),
    ("COc1ccc(N2CCN(C(=O)n3cc(C(F)(F)F)cn3)CC2)cc1", "> 75%"),
]

Field request: inhibition at 10 µM | item: Cc1cnn(C(=O)N2CCN(Cc3ccccc3)CC2)c1
25 to 75%

###

Molecular target: FAAH (Mus musculus, UniProt O08914)
Construct: Proteomes (mouse brain membrane fraction or cell lysates); from tissue; host or cells: mouse brain membrane fraction (or cell lysates, not specified)
Assay: In vitro competitive activity-based protein profiling (gel-based, FP-Rh or HT-01 probe)
Format: biochemical
Settings: mouse brain membrane fraction or cell lysates, 30 min preincubation at 37° C.; read-out: Mouse (IC50 value, nM) FAAH
Recorded measurements of IC50, one per entry

# compound structure string, IC50
data = [
    ("CCN(Cc1ccc(N2CCOCC2)cc1)C(=O)n1cc(C#N)cn1", "< 100 nM"),
    ("COc1ccc(N2CCN(C(=O)n3cc(C(F)(F)F)cn3)CC2)cc1", "< 100 nM"),
    ("CCN(Cc1ccc(C)cc1)C(=O)n1cc(C(F)(F)F)cn1", "< 100 nM"),
    ("O=C(N1CCN(C(c2ccc(Cl)cc2)c2ccc(Cl)cc2)CC1)n1cc(C(F)(F)F)cn1", "> 1000 nM"),
    ("CN(Cc1cccc(-c2ccncc2)c1)C(=O)n1cc(Cl)cn1", "< 100 nM"),
    ("CCN(Cc1cccc(Cl)c1)C(=O)n1cc(C#N)cn1", "< 100 nM"),
]

For FAAH (Mus musculus, UniProt O08914), provide IC50 of O=C(c1cnn(C(=O)N2CCN(Cc3nccs3)CC2)c1)N1CCC1 please.
> 1000 nM

Can you check Cc1cc(-c2ccccc2)ccc1CN1CCN(C(=O)n2cc(Cl)cn2)CC1 next?
< 100 nM

Can you check CCN(Cc1ccc(C)cc1)C(=O)n1cc(C#N)cn1 next?
< 100 nM

Can you check O=C(N1CCN(c2ccccc2Cl)CC1)n1cc(C(F)(F)F)cn1 next?
< 100 nM

Can you check O=C(N1CCN(Cc2ccc(Cl)cc2)CC1)n1cc(Cl)cn1 next?
< 100 nM

Can you check Cc1cnn(C(=O)N2CCN(Cc3c(N4CCCC4)cccc3C(F)(F)F)CC2)c1 next?
> 1000 nM

Can you check Cc1cc(-c2ccccc2)ccc1CN1CCN(C(=O)n2cc(C(=O)N3CCCCC3)cn2)CC1 next?
< 100 nM

Can you check O=C(N1CCN(Cc2ccc(C(F)(F)F)cc2N2CCCC2)CC1)n1cc(Cl)cn1 next?
> 1000 nM

Can you check Cc1cc(N2CCN(C(=O)n3cc(C(F)(F)F)cn3)CC2)c2ccccc2n1 next?
> 1000 nM

Can you check CCN(Cc1ccc(OC)cc1)C(=O)n1cc(C#N)cn1 next?
< 100 nM

Can you check O=C(N1CCCN(Cc2ccccc2)CC1)n1cc(C(F)(F)F)cn1 next?
100 to 1000 nM

Can you check Cc1cc(-c2ccccc2)ccc1CN1CCN(C(=O)n2cccn2)CC1 next?
100 to 1000 nM

Can you check O=C(N1CCN(Cc2c(N3CCCC3)cccc2C(F)(F)F)CC1)n1cc(C(F)(F)F)cn1 next?
> 1000 nM

Can you check N#Cc1cnn(C(=O)N2CCCN(Cc3ccccc3)CC2)c1 next?
< 100 nM

Can you check Cc1cc(-c2ccccc2)ccc1CN1CCN(C(=O)n2cc(C(=O)N3CCC3)cn2)CC1 next?
< 100 nM

Can you check CCN(Cc1ccc(Cl)cc1)C(=O)n1cc(C#N)cn1 next?
< 100 nM

Can you check CCN(Cc1ccc(Cl)cc1)C(=O)n1cc(Cl)cn1 next?
< 100 nM
